Target Under Test: T1, recombinant CD3D&E protein (human CD3-his tag) (human, UniProt P04234 22-105; P07766 23-126, limits assumed)
T1 construct: Analyte in Biacore; also called CD3D&E-His; CD3d&ε-His
T1 sequence (P04234 22-105 limits assumed, chain 1 of 2): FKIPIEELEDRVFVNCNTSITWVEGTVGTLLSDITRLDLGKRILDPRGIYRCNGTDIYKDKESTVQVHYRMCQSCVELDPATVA
T1 sequence (P07766 23-126 limits assumed, chain 2 of 2): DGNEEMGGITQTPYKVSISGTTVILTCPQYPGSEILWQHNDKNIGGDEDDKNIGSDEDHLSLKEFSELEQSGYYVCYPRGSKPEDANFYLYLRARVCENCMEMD
Method Notes: SPR Biacore, Ab captured on Protein A;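 further: humanized antibodies on a Protein A chip, human CD3-his analyte flowed over in serial dilutions for 3 min, dissociation tracked 120–360 s on a Biacore T200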
Parameter: Kd (nM)

binder="Hu153A6B1-14 (antibody, V domains shown, humanized mAb) VH: EVQLQESGPGLVKPSETLSLTCTVSGGSISSYNIHWVRQPPGKGLEWIGRIRYNGDTSYNSALKSRVTISRDTSKNQFSLKLSSVTAADTAVYYCARGPYGGSREPLFDYWGQGTMVTVSS VL: DIQMTQSPSSLSASVGDRVTITCKTSQNINKYLNWFQQKPGKAPKLLIYTTNNLQTGIPSRFSGSGSGTDFTLTISSLQPEDFATYFCLQHGSGYTFGQGTKLEIK" uom=nM recorded_value=51.7
binder="Hu192A7B9-24 (antibody, V domains shown, humanized mAb) VH: EVQLQESGPGLVKPSETLSLTCTVSGFSLTSYNVHWVRQPPGKGLEWMGRMRYNGDTSYNSALKSRLTISRDTSKNQVSLKLSSVTAADTAVYYCTRGPRGGYYSALFDYWGQGTMVTVSS VL: DIQMTQSPSSLSASVGDRVTITCKASQNINRYLNWYQQKPGKAPKVLISIANSLQTGIPSRFSGSGSGTDFTLTISSLQPEDFATYFCLQHNSWYTFGQGTKLEIK" uom=nM recorded_value=9.21
